- experiment-notes: Selectivity ratio of IC50 for human GST-tagged PDE3A expressed in insect cells to IC50 for rhesus monkey brain PDE2A3 expressed in human AD293 cells
measured-endpoint: Ratio IC50

compound_structure=C[C@@H](c1ccc(C(F)(F)F)cc1)n1nc(CO)c2c(=O)[nH]c(O)nc21 measured_endpoint="Ratio IC50" value_observed="> 1000"
compound_structure=Cc1nc2c(c(CO)nn2[C@@H](C)c2ccc(C(F)(F)F)cc2)c(=O)[nH]1 measured_endpoint="Ratio IC50" value_observed="> 500"
compound_structure=Cc1nc2c(c(C)nn2[C@@H](C)c2ccc(C(F)(F)F)cc2)c(=O)[nH]1 measured_endpoint="Ratio IC50" value_observed="0 to 100"
compound_structure=C[C@@H](c1ccc(C(F)(F)F)cc1)n1nc(CC(F)(F)F)c2c(=O)[nH]c(O)nc21 measured_endpoint="Ratio IC50" value_observed="> 12000"
